Experiment Summary: acute toxicity in mice according to the method of Lichtfield and Wilcoxon
Condition Description: mouse, in vivo, iv, printed range (190.4-251.9), read-out: LD50 i.v.
Quantity Kind: LD50 (mg/kg)
Return type: number; implicit unit mg/kg.

For the compound Cn1c(=O)c2c(ncn2CCCN[C@H]2CO[C@H]3[C@@H]2OC[C@@H]3O[N+](=O)[O-])n(C)c1=O , what LD50 is on record?
219

---

Experiment Summary: examination of acute toxicity, i.v., female NMRI-albino mice
Type: in vivo
Condition Description: mouse, in vivo, iv, mice, 24 hours; read-out: Evaluated LD50-range
Recorded LD50 at 24 h for the following molecules

Recorded LD50 at 24 h, per entry:
Quick one: LD50 at 24 h for Cn1c(=O)c2c(ncn2CCCCN[C@H]2CO[C@H]3[C@@H]2OC[C@@H]3O[N+](=O)[O-])n(C)c1=O ?
> 200 mg/kg

Could you tell me which LD50 at 24 h is on file for CC(C)Cn1c(=O)n(C)c(=O)c2c1ncn2CCCN[C@H]1CO[C@H]2[C@@H]1OC[C@@H]2O[N+](=O)[O-] ?
100 to 200 mg/kg

So what's the measured LD50 at 24 h for this one? Cn1c(=O)c2c(ncn2CCCCCN[C@H]2CO[C@H]3[C@@H]2OC[C@@H]3O[N+](=O)[O-])n(C)c1=O
100 to 200 mg/kg

Kindly review the next molecule as well.
What does the record list as LD50 at 24 h for Cn1c(=O)c2c(ncn2CCN[C@H]2CO[C@H]3[C@@H]2OC[C@@H]3O[N+](=O)[O-])n(C)c1=O ?
≥ 200 mg/kg
